# Lookup of reported self-cleavage keyed by entry
B1: LINE1-full (parent)
chain: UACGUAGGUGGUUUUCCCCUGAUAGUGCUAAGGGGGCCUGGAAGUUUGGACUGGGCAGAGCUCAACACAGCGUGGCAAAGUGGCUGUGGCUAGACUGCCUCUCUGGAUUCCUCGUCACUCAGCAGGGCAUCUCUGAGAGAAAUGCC

Variants of: B1
METHOD: self-cleavage, relative activity (ratio to wild type); higher = more cleavage; in vitro, sequencing; the parent is a self-cleaving ribozyme
// return just the number, without any unit appended

In the examples that follow, each entry is paired with its recorded self-cleavage.
U14C U20C ... 1.05
U13A C98G ... 0.09
A67G A77U ... 0.3
G8C A140G ... 2.03
A64G U104A ... 0.32

input: Give the measured self-cleavage for U1C C90A
output: 0

input: Using the record for A59G G80A , state its measured self-cleavage.
output: 0.08

input: Tell me measured self-cleavage for C51U A142U please.
output: 0.87

input: Please look at this variant and report its self-cleavage: U46A G125C
output: 1.35

input: Read off the recorded self-cleavage for U13C A142U
output: 1.09

input: Look up and state reported self-cleavage for A43G G127C
output: 0.77
